# phosphorylation enrichment annotations
Tested on: Fer (mouse);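 note: 11-residue human phosphosite peptides and single-mutation variants displayed on the E. coli surface, counted by deep sequencing, each peptide's frequency after selection divided by its frequency in the unselected input library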;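 note: frequency after pTyr selection over input frequency; kinase dosed for 20-30% of maximal phosphorylation in three min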
assay.remarks: phosphorylation enrichment, bacterial display (enrichment ratio); higher = better substrate or ligand; peptides without Tyr show the background
result.type: phosphorylation enrichment

sequence_input="IVRSPYEDLED [VHL_Y185_L184P]" data_value=0.562
sequence_input="VHSGTYQVTVC [MYBPC3_Y1043_R1048C]" data_value=0.516
sequence_input="MGRVNYGAFIN [GLB1_Y485_YF]" data_value=0.382
sequence_input="CTTLHYNYMCN [TP53_Y234_I232L]" data_value=1.41
sequence_input="LSALDYKIFYY [WDPCP_Y210]" data_value=0.404
sequence_input="GRQWNYVASMS [KLHL4_Y552]" data_value=0.355
sequence_input="YDYKKYGKGLR [ZNF445_Y433]" data_value=0.373
sequence_input="DGTIVYTGLET [USH2A_Y4487]" data_value=0.468
sequence_input="IDGLEYLHSQS [STK11_Y166_G171S]" data_value=0.476
sequence_input="TKQLTYEEQDL [PIK3C3_Y310]" data_value=0.649
sequence_input="KMKGDYYRSLA [YWHAG_Y130_Y133S]" data_value=0.325
sequence_input="SLALFYRKVYH [RBL1_Y792]" data_value=0.566
sequence_input="RRIHSHRGHLW [VHL_Y112_Y112H]" data_value=0.689
sequence_input="QRALLYEDTLF [UNC13D_Y56_A59T_YF]" data_value=17.9
sequence_input="RCKSHYAAFSV [C1QTNF1_Y145]" data_value=1.46
sequence_input="TSLAQYDSNSK [BMX_Y216]" data_value=0.37
sequence_input="VFFGSYSCPFG [NKAP_Y104_R106C_YF]" data_value=0.679
sequence_input="VVKTVYSLQPS [KNSTRN_Y87_P92S]" data_value=0.485
sequence_input="ANRNVYEVEPT [MEGF10_Y1075]" data_value=0.473
sequence_input="VEKEKYVSYIS [JMJD1C_Y596_M591V]" data_value=0.466
sequence_input="PLDGEYFSLQI [TP53_Y327_T329S]" data_value=0.749
sequence_input="LTMAPYSSVSL [FAM81A_Y24]" data_value=6.06
sequence_input="GVTLLCFGRFN [ADGRD1_Y85_Y85C_YF]" data_value=0.498
sequence_input="SLFNGYVFSGV [NEIL3_Y71_YF]" data_value=0.494
sequence_input="EKEKEYMLPLD [DNM2_Y563_K562E]" data_value=0.388
sequence_input="SVVVPYDPPEV [TP53_Y220_E221D]" data_value=0.465
sequence_input="SYTDPYAQPPL [KMT2D_Y2378]" data_value=0.489
sequence_input="ALRASYTPSPV [ESS2_Y418_A423V]" data_value=0.424
sequence_input="GLDGSYLLRFS [SH2D1A_Y29_D33Y_YF]" data_value=0.424
sequence_input="ELCSEYRKSRK [SPINK5_Y440]" data_value=0.457
sequence_input="IVLEKYKLLPE [DHFR_Y157_D153V]" data_value=0.45
sequence_input="RPGSGYTKIMR [PKLR_Y564_N566K]" data_value=0.42
sequence_input="PSAELYSNALP [PDGFRB_Y716]" data_value=7.66

Values compiled from the supplement of paper PMC10065799.
